Provenance of the data: ChEMBL document CHEMBL4177680

# Experimental protocol: Clearance in Beagle dog at 1 mg/kg, iv administered via 15 mins infusion by LC-MS/MS method
# Format: ADME, organism-based, Canis lupus familiaris
# Condition label: in vivo
Assay metric: clearance at […]

Record summary for N#Cc1ccc(Cn2ccc(NC(=O)Cc3ccc(C4(C(F)(F)F)CC4)cc3)n2)nc1 [APINOCALTAMIDE] : reported clearance at […] = 0.9 mL/min/kg

====

# System: MDR1
# Experimental protocol: Apparent permeability across apical to basolateral side in MDCK cells expressing MDR1 at 1 uM measured every 30 mins for 2 hrs
# Format: ADME, cell-based, Canis lupus familiaris
# Condition label: dog
Assay metric: Papp A→B at 2 h, 1 µM (×10⁻⁶ cm/s)
# unit: ×10⁻⁶ cm/s | format: bare number

Value of Papp A→B at 2 h, 1 µM reported for the compound `Cn1c(=O)oc2cc(CC(=O)Nc3ccn(Cc4ccc(F)c(F)c4)n3)ccc21` is 11

====

Here, each record is paired with measured Drug uptake(free) data.
# Experimental protocol: Free drug level in Wistar rat brain at 10 mg/kg administered via oral gavage measured after 1 hr by rapid equilibrium dialysis method
# Assay type: ADME, organism-based
# Condition label: in vivo
Could you give me the number in nM? Just the number is fine.

Solved entries (count: 4):
>  <Compound>
N#Cc1ccc(Cn2ccc(NC(=O)Cc3ccc(C4(C(F)(F)F)CC4)cc3)n2)nc1 [APINOCALTAMIDE]

>  <Readout number>
29

$$$$
>  <Compound>
Cn1ncc2cc(CC(=O)Nc3ccn(Cc4ccc(F)c(F)c4)n3)ccc21

>  <Readout number>
51

$$$$
>  <Compound>
CC(C)(C)c1ccc(CC(=O)Nc2ncn(Cc3ccc(F)c(F)c3)n2)cc1

>  <Readout number>
2.4

$$$$
>  <Compound>
O=C(Cc1ccc2[nH]ccc2c1)Nc1ccn(Cc2ccc(F)c(F)c2)n1

>  <Readout number>
52

$$$$

Okay, now this compound:
get_value(item= `CCc1cc(CC(=O)Nc2ccn(Cc3ccc(C#N)cn3)n2)ccc1OCC(F)(F)F` , readout=Drug uptake(free)) returns 4.8

====

# Tested on: Salmonella typhimurium
# Experimental protocol: Mutagenicity in Salmonella typhimurium TA98 assessed as increase in number of revertants in presence of rat liver S9 fraction by Ames test relative to control
# Format: toxicity, organism-based
# Condition label: salmonella enterica subsp. enterica serovar typhimurium
Form field: fold change (FC) (one value per entry).
Would you mind answering with just the numeric figure?

>  <Molecule>
Nc1ccn(Cc2ccc(F)cc2)n1

>  <System tested>
Salmonella typhimurium

>  <fold change (FC)>
4.1

$$$$
>  <Molecule>
N#Cc1cn(Cc2ccc(F)c(F)c2)nc1N

>  <System tested>
Salmonella typhimurium

>  <fold change (FC)>
1.1

$$$$
>  <Molecule>
N#Cc1ccc(Cn2ccc(N)n2)nc1

>  <System tested>
Salmonella typhimurium

>  <fold change (FC)>
1

$$$$
>  <Molecule>
Nc1nc(Cc2ccc(F)c(F)c2)cs1

>  <System tested>
Salmonella typhimurium

>  <fold change (FC)>
2.7

$$$$

Lab book: fold change (FC) of `N#Cc1ccc(Cn2ccc(N)n2)cc1F` noted as 1.2

For `COc1ccc(Cn2ccc(N)n2)cc1` the molecule record lists fold change (FC) as 8

Per the records, this molecule ( `Nc1ccn(Cc2ccccc2)n1` ) has fold change (FC) equal to 15.3

Measured fold change (FC) of `N#Cc1nc(Cn2ccc(N)n2)ccc1F` : 1.2

Query Nc1ccn(CC2CCC(F)(F)CO2)n1 (stereo in doubt; 14b) yields fold change (FC) of 1.1

fold change (FC) for `N#Cc1ccc(Cn2ccc(N)n2)cc1` is 1.5

====

# Experimental protocol: Intrinsic clearance in Wistar rat liver microsomes assessed per mg of protein at 1 uM after 15 mins in presence of NADPH regenerating system by LC-MS/MS method
# Format: ADME, microsome
# Condition label: read-out: CLH
Assay metric: microsomal CLint at […], 1 µM (µL/min/mg)
Just the number in µL/min/mg, nothing appended.

N#Cc1ccc(Cn2ccc(NC(=O)Cc3ccc(C4(C(F)(F)F)CC4)cc3)n2)nc1 [APINOCALTAMIDE] has a reported microsomal CLint at […], 1 µM of 59

====

# Experimental protocol: Drug metabolism in human plasma at 10 uM after 6 hrs by LC-MS/MS method
# Assay type: ADME, cell-free
# Condition label: read-out: Drug metabolism
# key: entry, value: metabolised at 6 h, 10 µM
Response body: numeric value in %, unit text excluded.

>  <Compound>
CC(C(=O)Nc1ccn(Cc2ccc(F)cc2)n1)c1ccc(N(C)C)cc1 (racemic)

>  <Units symbol>
%

>  <metabolised at 6 h, 10 µM>
7

$$$$

The reported metabolised at 6 h, 10 µM of the compound `CC(C)c1ccc(CC(=O)Nc2ccn(Cc3ccccc3)n2)cc1` was 4

====

# Experimental protocol: Drug level in Wistar rat cerebrospinal fluid at 10 mg/kg administered via oral gavage measured after 1 hr by LC-MS/MS method
# Format: ADME, organism-based
# Condition label: read-out: Drug uptake
Quick list: concentration at 1 h per entry.
Entry rule: numbers only, all in nM.

>  <Chem smiles>
O=C(Cc1ccc2cc[nH]c2c1)Nc1ccn(Cc2ccc(F)c(F)c2)n1

>  <Units symbol>
nM

>  <concentration at 1 h>
50

$$$$

get_value(item= `O=C(Cc1ccc2[nH]ccc2c1)Nc1ccn(Cc2ccc(F)c(F)c2)n1` , readout=concentration at 1 h) returns 164

// recorded concentration at 1 h for `Cn1ncc2cc(CC(=O)Nc3ccn(Cc4ccc(F)c(F)c4)n3)ccc21` : 92

For this compound ( `O=C(Cc1ccc(C2(F)COC2)cc1)Nc1ccn(Cc2ccc(F)c(F)c2)n1` ), measured concentration at 1 h is 135

====

# Experimental protocol: Free drug level in Wistar rat brain at 10 mg/kg administered via oral gavage measured after 1 hr by rapid equilibrium dialysis method
# Assay type: ADME, organism-based
# Condition label: in vivo
Drug uptake(free) values, listed per item
Answer with the value and then the unit.

>  <Chem smiles>
CC(C)(C)c1ccc(CC(=O)Nc2ccn(Cc3ccc(C#N)cn3)n2)cc1

>  <Drug uptake(free)>
6.1 nM

$$$$
>  <Chem smiles>
O=C(Cc1ccc(C2(F)COC2)cc1)Nc1ccn(Cc2ccc(F)c(F)c2)n1

>  <Drug uptake(free)>
63 nM

$$$$

Next, consider the following compound.
The compound listed as `Cn1ncc2cc(CC(=O)Nc3cnn(Cc4ccc(F)c(F)c4)n3)ccc21` shows Drug uptake(free) equal to 63 nM

====

# Experimental protocol: Intrinsic clearance in monkey liver microsomes assessed per mg of protein at 1 uM after 15 mins in presence of NADPH regenerating system by LC-MS/MS method
# Assay type: ADME, Macaca mulatta, microsome
# Condition label: rhesus monkey, read-out: CLH
Assay metric: microsomal CLint at […], 1 µM
Phrase the answer as number then unit, nothing more needed.

The value of microsomal CLint at […], 1 µM measured for the compound N#Cc1ccc(Cn2ccc(NC(=O)Cc3ccc(C4(C(F)(F)F)CC4)cc3)n2)nc1 [APINOCALTAMIDE] turned out to be 9 µL/min/mg

====

# Experimental protocol: Half life in human plasma at 10 uM by LC-MS/MS method
# Type: ADME, cell-free
Assay metric: half-life at 10 µM (min)
Just the number please, in min, no unit attached.

The reported half-life at 10 µM of the compound `O=C(Cc1ccc2[nH]ccc2c1)Nc1ccn(Cc2ccc(F)c(F)c2)n1` was 120

====

# Experimental protocol: Half life in Wistar rat at 1 mg/kg, iv administered via 5 mins infusion by LC-MS/MS method
# Type: ADME, organism-based
# Condition label: in vivo
Assay metric: half-life (h)
State the answer as a number, implicitly in h.

Entry N#Cc1ccc(Cn2ccc(NC(=O)Cc3ccc(C4(C(F)(F)F)CC4)cc3)n2)nc1 [APINOCALTAMIDE] — recorded half-life = 2.5

====

# Experimental protocol: Intrinsic clearance in human liver microsomes assessed per mg of protein at 1 uM after 15 mins in presence of NADPH regenerating system by LC-MS/MS method
# Type: ADME, microsome
# Condition label: read-out: CLH
Assay metric: microsomal CLint at […], 1 µM (µL/min/mg)
The answer is to be given in µL/min/mg; state only the numeric part.

Form: compound = CC(C)c1ccc(CC(=O)Nc2ccn(CC3CCC(F)(F)CO3)n2)cc1 (stereo in doubt; 15a) ; microsomal CLint at […], 1 µM = 43

microsomal CLint at […], 1 µM in this record for `CC(C)(C)c1ccc(CC(=O)Nc2ccn(Cc3ccc(C#N)cn3)n2)cc1` : 6

// microsomal CLint at […], 1 µM lookup, compound = N#Cc1ccc(Cn2ccc(NC(=O)Cc3ccc(C4(C(F)(F)F)CC4)cc3)n2)nc1 [APINOCALTAMIDE] , result: 24

====

# Test system: MDR1
# Experimental protocol: Apparent permeability across basolateral to apical side in MDCK cells expressing MDR1 at 1 uM measured every 30 mins for 2 hrs
# Format: ADME, cell-based, Canis lupus familiaris
# Condition label: dog
Assay metric: Papp B→A at 2 h, 1 µM

// recorded Papp B→A at 2 h, 1 µM for `Cn1c(=O)oc2cc(CC(=O)Nc3ccn(Cc4ccc(F)c(F)c4)n3)ccc21` : 59 ×10⁻⁶ cm/s
